Record form. Attribute: Alkaline Phosphatase Increase - Index Value. Fill in for each entry.
Test system: Hepatotoxicity
measurement_notes: FDA HLAED, alkaline phosphatase increase
run_conditions: human
One number for each entry.

Below is a list of molecules. For each, state its recorded Alkaline Phosphatase Increase - Index Value.
1. CC1(C)C(C=C(Cl)Cl)C1C(=O)OCc1cccc(Oc2ccccc2)c1 (stereo not drawn) [PERMETHRIN]
2. CCC(=O)OCC(=O)[C@@]1(OC(=O)CC)[C@H](C)C[C@H]2[C@H]3[C@H]([C@@H](O)C[C@@]21C)[C@@]1(C)C=CC(=O)C=C1C[C@H]3Cl [ALCLOMETASONE DIPROPIONATE]
3. C[C@]12CC[C@@H]3c4ccc(OC(=O)c5ccccc5)cc4CC[C@H]3[C@@H]1CC[C@@H]2O [ESTRADIOL BENZOATE]
4. C=C1CC[C@@]2(O)[C@H]3Cc4ccc(O)c5c4[C@@]2(CCN3CC2CC2)[C@H]1O5
5. CCC(=O)O[C@H]1CC[C@H]2[C@@H]3CCC4=CC(=O)CC[C@]4(C)[C@H]3CC[C@]12C [TESTOSTERONE PROPIONATE]
6. COc1c(C)c2c(c(O)c1C/C=C(\C)CCC(=O)O)C(=O)OC2 [MYCOPHENOLIC ACID]

[out]
1. 0
2. 0
3. 1.5
4. 0
5. 0
6. 5.7

Below is a list of molecules. For each, state its recorded Alkaline Phosphatase Increase - Index Value.
1. O=C1c2c(O)ccc(O)c2C(=O)c2c(NCCNCCO)ccc(NCCNCCO)c21 [MITOXANTRONE]
2. CC(S)C(=O)NCC(=O)O (stereo not drawn) [TIOPRONIN]

[out]
4.5
0

* * *

Tested on: Hepatotoxicity
measurement_notes: FDA HLAED, alkaline phosphatase increase
run_conditions: human
observed_property: Alkaline Phosphatase Increase - Activity Score

Some solved cases for reference:
[in] Need Alkaline Phosphatase Increase - Activity Score, item C=C1c2c(Cl)ccc(O)c2C(=O)C2=C(O)[C@]3(O)C(=O)C(C(N)=O)=C(O)[C@@H](N(C)C)[C@@H]3[C@@H](O)[C@H]12 [MECLOCYCLINE]
[out] Inactive

[in] Need Alkaline Phosphatase Increase - Activity Score, item Nc1nc2c(ncn2COCCO)c(=O)[nH]1 [ACYCLOVIR]
[out] Inactive

[in] Need Alkaline Phosphatase Increase - Activity Score, item NC1=NC(=O)C(c2ccccc2)O1 (stereo not given) [PEMOLINE]
[out] Active

[in] Need Alkaline Phosphatase Increase - Activity Score, item CC(=O)O[C@H]1C[C@@H]2CC[C@@H]3[C@H](CC[C@@]4(C)[C@H]3C[C@H](N3CC[N+](C)(C)CC3)[C@@H]4OC(C)=O)[C@@]2(C)C[C@@H]1N1CC[N+](C)(C)CC1.[Br-].[Br-] [PIPECURONIUM BROMIDE]
[out] Inactive

Below is a list of molecules. For each, state its recorded Alkaline Phosphatase Increase - Activity Score.
1. O=C(O)[C@@H](S)[C@@H](S)C(=O)O
2. C[C@@]12CCCCC[C@@H](Cc3ccc(O)cc31)[C@@H]2N [DEZOCINE]
3. O=C(O)P(=O)(O)O [FOSCARNET]
4. COc1ccc2cc(CCC(C)=O)ccc2c1 [NABUMETONE]
5. CC(C)N1CCN(c2ccc(OCC3COC(Cn4cncn4)(c4ccc(Cl)cc4Cl)O3)cc2)CC1 (stereo not given) [TERCONAZOLE]

[out]
["Active", "Inactive", "Active", "Inactive", "Inactive"]

[in] Need Alkaline Phosphatase Increase - Activity Score, item CCOC(=O)C1=C(COCCN)NC(C)=C(C(=O)OC)C1c1ccccc1Cl (stereo not given) [AMLODIPINE]
[out] Inactive

* * *

Test system: Hepatotoxicity
measurement_notes: FDA HLAED, lactate dehydrogenase (LDH) increase
run_conditions: human
observed_property: LDH Increase - Number of Reports

Some solved cases for reference:
[in] Need LDH Increase - Number of Reports, item CCC(=O)O[C@@H](O[P@](=O)(CCCCc1ccccc1)CC(=O)N1C[C@H](C2CCCCC2)C[C@H]1C(=O)O)C(C)C
[out] < 4

[in] Need LDH Increase - Number of Reports, item Cn1c(=O)c2[nH]cnc2n(C)c1=O.O
[out] < 4

[in] Need LDH Increase - Number of Reports, item O=C(O)CCCCCCCC(=O)O
[out] < 4

[in] Need LDH Increase - Number of Reports, item CC(C)NCC(O)COc1ccc(CC(N)=O)cc1 (stereo not drawn)
[out] < 4

[in] Need LDH Increase - Number of Reports, item C[C@]12CC[C@@H]3c4ccc(O)cc4CC[C@H]3[C@@H]1CC[C@@H]2O
[out] >= 4

Below is a list of compounds. For each, state its recorded LDH Increase - Number of Reports.
1. C=CC1=C(C(=O)O)N2C(=O)[C@@H](NC(=O)/C(=N\OCC(=O)O)c3csc(N)n3)[C@H]2SC1
2. CC(C)NCC(O)COc1ccc(COCCOC(C)C)cc1 (stereo not drawn)

[out]
< 4
< 4

* * *

Test system: Hepatotoxicity
measurement_notes: FDA HLAED, serum glutamic oxaloacetic transaminase (SGOT) increase
run_conditions: human
Numbered stars: 1 amine (or outer) side, 2 acyl side, 3 side chain; on linkers, the order of the positions; unused ones are H or OH. Bridge positions count the residues as written; N and C are the ends. Square brackets hold non-standard residues; d marks the D form. Peptide text beside a SMILES is read from it. I, II: the chains in the order shown. Actinocin(9to1) = Cc1c2oc3c(C)ccc(C(=O)[*:1])c3nc-2c(C(=O)[*:2])c(N)c1=O; NMeV = CN[C@H](C(=O)O)C(C)C; Sar = CNCC(=O)O
Record form. Attribute: SGOT Increase - Index Value. Fill in for each entry.
Answers are plain numbers.

[in] Need SGOT Increase - Index Value, item CCc1cccc2c3c([nH]c12)C(CC)(CC(=O)O)OCC3 (stereo unspecified)
[out] 1.1

[in] Need SGOT Increase - Index Value, item CCOC(=O)[C@H](CCc1ccccc1)N[C@H]1CCc2ccccc2N(CC(=O)O)C1=O
[out] 0

[in] Need SGOT Increase - Index Value, item CCCCNc1cc(C(=O)O)cc(S(N)(=O)=O)c1Oc1ccccc1 [BUMETANIDE]
[out] 0

[in] Need SGOT Increase - Index Value, item CCCCc1nc(Cl)c(CO)n1Cc1ccc(-c2ccccc2-c2nn[nH]n2)cc1
[out] 0.8

[in] Need SGOT Increase - Index Value, item C[C@@H](CN1CC(=O)NC(=O)C1)N1CC(=O)NC(=O)C1
[out] 0

Below is a list of compounds. For each, state its recorded SGOT Increase - Index Value.
1. COC(=O)CCc1ccc(OCC(O)CNC(C)C)cc1 (stereo unspecified)
2. Cc1c2oc3c(C)ccc(C(=O)N[C@@H]4C(=O)N[C@H](C(C)C)C(=O)N5CCC[C@H]5C(=O)N(C)CC(=O)N(C)[C@@H](C(C)C)C(=O)O[C@@H]4C)c3nc-2c(C(=O)N[C@@H]2C(=O)N[C@H](C(C)C)C(=O)N3CCC[C@H]3C(=O)N(C)CC(=O)N(C)[C@@H](C(C)C)C(=O)O[C@@H]2C)c(N)c1=O [DACTINOMYCIN] (I: T[dV]P[Sar][NMeV] / II: T[dV]P[Sar][NMeV]; ester I:1-I:C, II:1-II:C; linker I:N-II:N via Actinocin(9to1))
3. NCCCC(O)(P(=O)(O)O)P(=O)(O)O
4. CCCC(=O)Nc1ccc(OCC(O)CNC(C)C)c(C(C)=O)c1 (stereo unspecified)
5. CN1C(C(=O)Nc2ccccn2)=C(O)c2ccccc2S1(=O)=O

[out]
[4.6, 29.6, 1.4, 2.6, 1.7]

Below is a list of compounds. For each, state its recorded SGOT Increase - Index Value.
1. O=C1NC(c2ccccc2)(c2ccccc2)C(=O)N1COP(=O)(O)O
2. C[C@]12CC[C@H]3[C@@H](CCC4=CC(=O)CC[C@@]43C)[C@@H]1CC[C@@H]2O

[out]
0
4.8

Below is a list of compounds. For each, state its recorded SGOT Increase - Index Value.
1. O=C(c1ccccc1)c1ccc2n1CCC2C(=O)O (stereo unspecified)
2. COc1ccc(C(=O)Nc2ccccc2CCC2CCCCN2C)cc1 (stereo unspecified) [ENCAINIDE]
3. COC(=O)C1=C(C)NC(C)=C(C(=O)OCC(C)C)C1c1ccccc1[N+](=O)[O-] (stereo unspecified)
4. CC(=O)Oc1c(C)cc(OCC(O)CNC(C)C)c(C)c1C (stereo unspecified)

[out]
0.9
12.4
3.2
0

* * *

System: Hepatotoxicity
measurement_notes: FDA HLAED, gamma-glutamyl transferase (GGT) increase
run_conditions: human
Record form. Attribute: GGT Increase - Index Value. Fill in for each entry.

Some solved cases for reference:
[in] Need GGT Increase - Index Value, item COc1ccc(Cl)cc1C(=O)NCCc1ccc(S(=O)(=O)NC(=O)NC2CCCCC2)cc1 [GLYBURIDE]
[out] 0

[in] Need GGT Increase - Index Value, item CC(C)C[C@H]1C(=O)N2CCC[C@H]2[C@]2(O)O[C@](NC(=O)[C@@H]3C=C4c5cccc6[nH]c(Br)c(c56)C[C@H]4N(C)C3)(C(C)C)C(=O)N12
[out] 0

Below is a list of compounds. For each, state its recorded GGT Increase - Index Value.
1. c1ccc([C@H]2CN3CCSC3=N2)cc1
2. Nc1ccn([C@H]2CC[C@@H](CO)O2)c(=O)n1
3. CC1=C(/C=C/C(C)=C/C=C/C(C)=C\C(=O)O)C(C)(C)CCC1

[out]
1: 5.9; 2: 1.4; 3: 0
